The reported measurements were obtained from PubChem BioAssay (NCI).

- measurementProtocol: NCI Yeast Anticancer Drug Screen. Data for the rad18 strain (AID 177)
- experimentalContext: S. cerevisiae rad18 mutant growth inhibition; at 1.2 µM; active compounds read high
This is part of a sample that, as a whole, favours compounds with a hit. Of some 79,000 tested, about 15% had one in any assay. The source made the active and inactive calls. No stated cut-off is given here; in the data, active means growth inhibition above about 70%; inactive means the rest.
Listed next: entries and their corresponding growth inhibition.

Sample records with growth inhibition:
CCCCCCCCCCCCCCCCCC(=O)NCCCN(C)C :: -32% (inactive)
S=c1sc2c(s1)SCCS2 :: -4% (inactive)
O=C(/C=C\c1cccc(C(F)(F)F)c1)c1ccccc1 :: 0% (inactive)

### Prompt Using the record for CCCCCCOC(=O)NCCOC(=O)Nc1ccccc1 , report its growth inhibition.
### Response 2% (inactive)

---

- measurementProtocol: NCI Yeast Anticancer Drug Screen. Data for the mec2-1 strain (AID 157)
- experimentalContext: S. cerevisiae mec2-1 strain, at 5.0 µM (retest, dose inferred, filed as 0.5), active compounds read high
The panel holds about 79,000 compounds, 15% with a hit somewhere; the sample as a whole holds those more often.
parameter: growth inhibition (%)
# output: bare number, implied unit %

### Prompt Using the record for O=C(O)c1ccccc1/C=N/N=C1c2ccccc2-c2ccccc21 , report its growth inhibition.
### Response 2

### Prompt Using the record for O/N=C\c1c(O)ccc2ccccc12 , report its growth inhibition.
### Response -2

### Prompt Using the record for Nc1ccc2c(c1)C(=O)c1ccc(F)cc1-2 , report its growth inhibition.
### Response -2

### Prompt Using the record for COc1ccc(/C=C2\NC(=S)N(/C=C3\C(=O)Oc4ccccc4C3=O)C2=O)cc1 , report its growth inhibition.
### Response -1

---

- measurementProtocol: NCI Yeast Anticancer Drug Screen. Data for the mlh1 strain (AID 171);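 further: 0% = growth of vehicle-treated control cultures of the same strain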
- experimentalContext: S. cerevisiae mlh1 strain growth inhibition; at 11.0 µM; active compounds read high
The panel holds about 79,000 compounds, 15% with a hit somewhere; the sample as a whole holds those more often.
parameter: growth inhibition (%)
# output: bare number, implied unit %

### Prompt Using the record for CCN(CC)CCNc1ccc([N+](=O)[O-])c2nc3ccccc3c(N)c12 , report its growth inhibition.
### Response -9

### Prompt Using the record for CCC(C)OC(=O)Nc1ccc(C)c(NC(=O)OC(C)CC)c1 (stereo not drawn) , report its growth inhibition.
### Response -5

### Prompt Using the record for CCc1c[n+]([O-])c(C)cc1[N+](=O)[O-] , report its growth inhibition.
### Response 3

---

- measurementProtocol: NCI Yeast Anticancer Drug Screen. Data for the wt1 strain (AID 149);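 further: 0% = growth of vehicle-treated wt1 cultures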
- experimentalContext: S. cerevisiae wt1 strain (SPY 50644) growth inhibition; at 33.0 µM; active compounds read high
About 79,000 compounds went through this panel and 15% of them were active in at least one assay; those are over-represented in the sample as a whole.
Quick rule: growth inhibition of at least 60% means TRUE, below that means FALSE.

Use the examples below as a reference point.
Cc1cc2cc3cc(C)c(N)cc3nc2cc1N :: FALSE
CCOC1=C/C(=N\Nc2ccc([N+](=O)[O-])cc2)CCC1 :: FALSE
O=C(O)Cc1cc(F)ccc1C(=O)O :: FALSE
CCO/C(C)=C(/C#N)C(N)=S :: FALSE
Cc1ccc2c(c1)C1(SC(C)C(=O)N1c1ccc(Cl)cc1)C(=O)N2 (stereo not given) :: FALSE

### Prompt hey, is growth inhibition for this one >= 60%? COc1ccc(/C=C2\NC(=S)N(/C=C3\C(=O)Oc4ccccc4C3=O)C2=O)cc1
### Response FALSE

---

- measurementProtocol: NCI Yeast Anticancer Drug Screen. Data for the rad52 strain (AID 147);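 further: 0% = growth of vehicle-treated control cultures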
- experimentalContext: S. cerevisiae rad52 mutant growth inhibition; at 1.2 µM; active compounds read high
- Method: Growth inhibition of yeast strains with defined genetic alterations is measured as a screen for potential anti-cancer activity. Selected strains with alterations in DNA damage repair or cell cycle control were exposed to compounds and growth inhibition was measured relative to vehicle treated controls. The strain used in this assay is rad52
Compounds without any hit were thinned out: in the full panel of roughly 79,000, 15% have a hit. Activity calls are given as the source filed them. Cut-off read from the data, not from the text of the source: active = growth inhibition above about 70%; inactive = the rest.
Listed next: entries and their corresponding growth inhibition.

Sample records with growth inhibition:
Oc1[nH]c2ccccc2c1N=NC(=S)N1CCCCC1 :: 6% (inactive)
Cc1csc(=S)n1OC(=O)NC1CCCCC1 :: -54% (inactive)

Turning now to a further compound:
### Prompt Using the record for CCn1c(O)c(C=Nc2ccccc2)s/c1=N/Nc1nc(-c2ccccc2)cs1 , report its growth inhibition.
### Response 12% (inactive)

---

- measurementProtocol: NCI Yeast Anticancer Drug Screen. Data for the mec2-1 strain (AID 157)
- experimentalContext: S. cerevisiae mec2-1 strain, at 50.0 µM, active compounds read high
About 79,000 compounds went through this panel and 15% of them were active in at least one assay; those are over-represented in the sample as a whole.
parameter: growth inhibition (%)
# output: bare number, implied unit %

### Prompt Using the record for O=C1C=C(c2ccccc2)OC1(c1ccccc1)N1CCOCC1 (stereo not drawn) , report its growth inhibition.
### Response -5.95

### Prompt Using the record for CC1(C)CC(=O)C(/C=N/c2nc(-c3ccccc3)cs2)=C(O)C1 , report its growth inhibition.
### Response 20.1

### Prompt Using the record for OC(CCNCc1ccccc1)c1ccc2ccccc2c1 (stereo not drawn) , report its growth inhibition.
### Response 37.9

---

- measurementProtocol: NCI Yeast Anticancer Drug Screen. Data for the mec2-1 strain (AID 157)
- experimentalContext: S. cerevisiae mec2-1 strain, at 11.0 µM, active compounds read high
About 79,000 compounds went through this panel and 15% of them were active in at least one assay; those are over-represented in the sample as a whole.
Listed next: entries and their corresponding growth inhibition.
# output: bare number, implied unit %

Sample records with growth inhibition:
COc1cc(/C=C2\CCC/C(=C\c3ccc(O)c(OC)c3)C2=O)ccc1O :: 1
Cc1ccccc1N=Cc1cc(Cl)ccc1O :: 1
CCOC(=O)C1=C(C)NC(C)=C(C(=O)OCCNC(=O)c2ccc(N=[N+]=[N-])cc2)C1c1ccccc1C(F)(F)F (stereo unspecified) :: -2

Turning now to a further compound:
### Prompt Using the record for CC(/C=C/c1ccccc1)=N\NC(N)=S , report its growth inhibition.
### Response -6

---

- measurementProtocol: NCI Yeast Anticancer Drug Screen. Data for the rad18 strain (AID 177)
- experimentalContext: S. cerevisiae rad18 mutant growth inhibition; at 3.7 µM; active compounds read high
About 79,000 compounds went through this panel and 15% of them were active in at least one assay; those are over-represented in the sample as a whole.
parameter: growth inhibition (%)
# output: bare number, implied unit %

### Prompt Using the record for Cc1c(C(C)C)cc(OCCO)cc1C(C)C , report its growth inhibition.
### Response -7

### Prompt Using the record for O=C(c1ccc([N+](=O)[O-])cc1)C1N=NCC1c1ccccc1 (configuration not stated) , report its growth inhibition.
### Response 0

### Prompt Using the record for O/N=C\c1c(O)ccc2ccccc12 , report its growth inhibition.
### Response 0

---

- measurementProtocol: NCI Yeast Anticancer Drug Screen. Data for the rad18 strain (AID 177)
- experimentalContext: S. cerevisiae rad18 mutant growth inhibition; at 11.0 µM; active compounds read high
About 79,000 compounds went through this panel and 15% of them were active in at least one assay; those are over-represented in the sample as a whole.
Listed next: entries and their corresponding growth inhibition.
# output: bare number, implied unit %

Sample records with growth inhibition:
O=C1CC(=O)c2ccccc21 :: 7
Cc1ccc(Cl)cc1NC(=O)OCCN(C)C(=O)Nc1cc(Cl)ccc1C :: -33
N/C(=N/N=C/c1cc(Br)cc(Br)c1O)NO :: 75

### Prompt Using the record for O=C(Nc1ccc(Cl)cc1)Nc1nnc2nc(C(C(=O)c3cccc([N+](=O)[O-])c3Cl)c3nc4nnc(NC(=O)Nc5ccc(Cl)cc5)n4[nH]c3=O)c(=O)[nH]n12 , report its growth inhibition.
### Response -12

### Prompt Using the record for C=C1CC(CCCl)(c2ccccc2)OC1=O (stereo not drawn) , report its growth inhibition.
### Response 61

### Prompt Using the record for O=c1ccc2ccccc2c2ccccc12 , report its growth inhibition.
### Response 76

### Prompt Using the record for CN(C)c1ccc2c(SCC(=O)OCC(=O)[C@@]3(O)CC[C@H]4[C@@H]5CCC6=CC(=O)C=C[C@]6(C)[C@H]5C(=O)C[C@@]43C)c3ccc(N(C)C)cc3nc2c1 , report its growth inhibition.
### Response 74

---

- measurementProtocol: NCI Yeast Anticancer Drug Screen. Data for the rad50 strain (AID 155);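 further: 0% = growth of vehicle-only cultures of the same strain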
- experimentalContext: S. cerevisiae rad50 strain growth inhibition; at 1.2 µM; active compounds read high
About 79,000 compounds went through this panel and 15% of them were active in at least one assay; those are over-represented in the sample as a whole.
Listed next: entries and their corresponding growth inhibition.
# output: bare number, implied unit %

Sample records with growth inhibition:
CCCCOCn1c(=O)[nH]c(=O)c2cc(Br)ccc21 :: -35
CCCCc1ccc(-n2c(C)c(COC(=O)NC)c(COC(=O)NC)c2C)cc1 :: -36
O=C(O)CCCC1CCCc2c1ccc1ccccc21 (stereo unspecified) :: -2
C=C1C(=O)OC2CC1C(OC(C)=O)C/C(C)=C/CC/C(C)=C\CCC2(C)O (stereo unspecified) :: -3
CN(C)c1ccc(N=Nc2ccncc2)cc1 :: 8

### Prompt Using the record for OC1(c2ccccc2)CCCc2ccc(Cl)cc21 (stereo unspecified) , report its growth inhibition.
### Response -3

### Prompt Using the record for CCCC(=O)Oc1ccc(/C=N/NC(N)=S)nc1 , report its growth inhibition.
### Response -9

### Prompt Using the record for c1ccc(CCN2CCc3ccccc3C2)cc1 , report its growth inhibition.
### Response 1

### Prompt Using the record for S=c1[nH]c2cc3ccccc3cc2[nH]1 , report its growth inhibition.
### Response -25

### Prompt Using the record for CC(C)CCCC(C)C1CCC2C3CCC4=CC(=O)/C(=C\O)CC4(C)C3CCC12C (stereo unspecified) , report its growth inhibition.
### Response 1

### Prompt Using the record for Cc1cc(C)c(NC(=S)NC(=O)c2ccccc2)cc1C , report its growth inhibition.
### Response -50
